test system: HepG2; assay: cytotoxicity call (relative viability < 0.9); settings: 10 µM
In all, about 39,000 compounds went through this assay and about 3,300 (8.5%) were called active. This excerpt belongs to a sample that is enriched for actives.
QUANTITY_NAME: cytotoxicity call

[
  {
    "CHEMICAL_STRUCTURE": "CC(C)NC(=O)Nc1ccc2c(c1)CC(=O)N([C@H](C)CO)C[C@@H](C)[C@@H](CN(C)Cc1ccc(Oc3ccccc3)cc1)O2",
    "QUANTITY_NAME": "cytotoxicity call",
    "MEAS_VALUE": "active"
  },
  {
    "CHEMICAL_STRUCTURE": "COc1ccc(NC(=O)N(C)C[C@H]2Oc3cc(C#CCN(C)C)ccc3S(=O)(=O)N([C@@H](C)CO)C[C@@H]2C)cc1",
    "QUANTITY_NAME": "cytotoxicity call",
    "MEAS_VALUE": "inactive"
  },
  {
    "CHEMICAL_STRUCTURE": "COc1ccc([Si](C)(C)[C@H]2[C@H](CCO)O[C@@]3(C(=O)N(Cc4ccccc4)c4ccc(N5C(=O)c6cccc7cccc5c67)cc43)[C@@H]2C)cc1",
    "QUANTITY_NAME": "cytotoxicity call",
    "MEAS_VALUE": "active"
  },
  {
    "CHEMICAL_STRUCTURE": "CC(C)NC(=O)Nc1ccc2c(c1)CC(=O)N([C@H](C)CO)C[C@@H](C)[C@H](CN(C)Cc1ccc(Oc3ccccc3)cc1)O2",
    "QUANTITY_NAME": "cytotoxicity call",
    "MEAS_VALUE": "inactive"
  },
  {
    "CHEMICAL_STRUCTURE": "NCC1CCN(Cc2ccccc2)CC1",
    "QUANTITY_NAME": "cytotoxicity call",
    "MEAS_VALUE": "inactive"
  },
  {
    "CHEMICAL_STRUCTURE": "O=C(N[C@@H]1CC=CC[C@H](CC(=O)N(CCO)Cc2ccccc2)C(=O)N[C@@H](Cc2ccccc2)COC1=O)OCC1c2ccccc2-c2ccccc21",
    "QUANTITY_NAME": "cytotoxicity call",
    "MEAS_VALUE": "inactive"
  },
  {
    "CHEMICAL_STRUCTURE": "O=C1N[C@H](Cc2c[nH]c3ccccc23)COC(=O)[C@H](Cc2ccc(F)cc2)CC=CC[C@@H]1CC(=O)N(CCO)Cc1ccccc1",
    "QUANTITY_NAME": "cytotoxicity call",
    "MEAS_VALUE": "inactive"
  },
  {
    "CHEMICAL_STRUCTURE": "O=C(N[C@H]1CC=CC[C@H](CC(=O)N(CCO)Cc2ccccc2)C(=O)N[C@@H](Cc2ccccc2)COC1=O)OCC1c2ccccc2-c2ccccc21",
    "QUANTITY_NAME": "cytotoxicity call",
    "MEAS_VALUE": "active"
  },
  {
    "CHEMICAL_STRUCTURE": "C[C@@H]1CN([C@@H](C)CO)C(=O)c2cc(NC(=O)c3ccncc3)ccc2O[C@@H](C)CCCCO[C@@H]1CN(C)Cc1ccccc1",
    "QUANTITY_NAME": "cytotoxicity call",
    "MEAS_VALUE": "inactive"
  },
  {
    "CHEMICAL_STRUCTURE": "CCCN(C)C[C@H]1OCCCC[C@@H](C)Oc2ccc(NS(=O)(=O)c3cn(C)cn3)cc2C(=O)N([C@@H](C)CO)C[C@@H]1C",
    "QUANTITY_NAME": "cytotoxicity call",
    "MEAS_VALUE": "inactive"
  },
  {
    "CHEMICAL_STRUCTURE": "O=C1N[C@H](Cc2c[nH]c3ccccc23)COC(=O)[C@@H](Cc2ccc(F)cc2)CC=CC[C@@H]1CC(=O)N(CCO)Cc1ccccc1",
    "QUANTITY_NAME": "cytotoxicity call",
    "MEAS_VALUE": "inactive"
  },
  {
    "CHEMICAL_STRUCTURE": "C[C@@H]1CN([C@@H](C)CO)C(=O)c2cc(NC(=O)Nc3cccc4ccccc34)ccc2O[C@@H]1CN(C)Cc1ccc(C(=O)O)cc1",
    "QUANTITY_NAME": "cytotoxicity call",
    "MEAS_VALUE": "inactive"
  },
  {
    "CHEMICAL_STRUCTURE": "O=C1N[C@@H](Cc2c[nH]c3ccccc23)COC(=O)[C@@H](Cc2ccc(F)cc2)CC=CC[C@@H]1CC(=O)N(CCO)Cc1ccccc1",
    "QUANTITY_NAME": "cytotoxicity call",
    "MEAS_VALUE": "active"
  },
  {
    "CHEMICAL_STRUCTURE": "COCC(=O)Nc1ccc2c(c1)C(=O)N(C)C[C@H](OC)[C@H](C)CN(Cc1ccccc1OC)[C@H](C)CO2",
    "QUANTITY_NAME": "cytotoxicity call",
    "MEAS_VALUE": "inactive"
  }
]
